Molecular target: Lysophosphatidic acid receptor 1 (Homo sapiens, UniProt Q92633)
Sequence (Q92633 whole entry): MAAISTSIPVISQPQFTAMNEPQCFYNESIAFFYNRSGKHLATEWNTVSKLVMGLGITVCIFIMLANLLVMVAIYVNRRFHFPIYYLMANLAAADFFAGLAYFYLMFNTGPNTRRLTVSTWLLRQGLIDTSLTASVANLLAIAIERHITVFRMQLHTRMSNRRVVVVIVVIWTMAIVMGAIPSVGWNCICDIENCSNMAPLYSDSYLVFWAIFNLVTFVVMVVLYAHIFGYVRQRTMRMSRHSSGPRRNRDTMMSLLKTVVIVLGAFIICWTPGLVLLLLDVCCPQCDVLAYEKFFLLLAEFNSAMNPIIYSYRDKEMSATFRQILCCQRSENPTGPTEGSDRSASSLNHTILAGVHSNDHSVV
Experiment: Antagonist activity at recombinant human LPA1 expressed in CHO cell […] pretreated for 24 hrs prior to Fura-2-AM dye addition for 1 hr followed by LPA stimulation measured after 3 mins by fluorescence assay
Type: functional, cell-based
experimental-readout: pIC50
Friendly reminder that pIC50 comes from taking -log10 of the concentration in mol/L.

Request: Look up pIC50 for this compound: COc1cc([C@@H](O)[C@@H](CC2Cc3ccccc3C2)Cn2ccc(CCC(=O)O)c2)cc(OC)c1C
Response: 9.80

* * *

Reported pIC50 values for the following molecules.
Molecular target: Lysophosphatidic acid receptor 1 (Homo sapiens)
Experiment: Antagonist activity at recombinant human LPA1 expressed in CHO cells assessed as reduction in LPA-induced intracellular calcium level pretreated followed by LPA addition by Fura-2-AM dye based fluorescence assay
Type: functional, cell-based
Friendly reminder that pIC50 comes from taking -log10 of the concentration in mol/L.

Previously resolved entries follow.
In [3]: df
Out[3]:
                               given_smiles                               test_system  experimental_result
0  COc1cc([C@@H](O)[C@@H](CCCc2ccccc2)Cn2ccc(CCC(=O)O)c2)cc(OC)c1C  Lysophosphatidic acid receptor 1 (Homo sapiens)                 7.66
1  COc1cc([C@@H](O)[C@@H](CCCc2cccs2)Cn2ccc(CCC(=O)O)c2)cc(OC)c1C  Lysophosphatidic acid receptor 1 (Homo sapiens)                 7.35

Request: Look up pIC50 for this molecule: COc1cc([C@@H](O)[C@@H](CC2Cc3ccccc3C2)Cn2ccc(CC(=O)O)c2)cc(OC)c1C
Response: 7.21

Request: Look up pIC50 for this molecule: COc1cc([C@@H](O)[C@@H](CCCc2cccs2)Cn2ccc(CC(=O)O)c2)cc(OC)c1C
Response: 7.54

* * *

Target: Lysophosphatidic acid receptor 1 (Homo sapiens)
Test: Binding affinity to recombinant human LPA1 expressed in CHO cell membranes measured after 2 hrs at 4 degC by scintillation counting method
experimental-readout: pKd
Friendly reminder that pKd comes from taking -log10 of the concentration in mol/L.

Request: Look up pKd for this compound: [3H]C(C(=O)O)C([3H])c1ccn(C[C@H](CC2Cc3ccccc3C2)[C@H](O)c2cc(OC)c(C)c(OC)c2)c1 (stereo partly specified)
Response: 7.65

* * *

Reported Kd values for the following compounds.
Target: UniProt:Q92633
Assay: Binding affinity to recombinant human LPA1 expressed in CHO cell membranes measured after 1 hr by scintillation counting method
// note: answer is a bare numeric in nM

                                   compound  experimental_readout  experimental_result
0  [3H]C(C(=O)O)C([3H])c1ccn(C[C@H](CC2Cc3ccccc3C2)[C@H](O)c2cc(OC)c(C)c(OC)c2)c1 (some centres not stated)                    Kd                 1.26

Request: Look up Kd for this compound: [3H]C(CN(Cc1ccc(CC(=O)O)cc1)C(=O)c1cc(OC)c(C)c(OC)c1)C([3H])c1ccccc1 (configuration not stated)
Response: 6.54

* * *

Target: Lysophosphatidic acid receptor 1 (Homo sapiens, UniProt Q92633)
Experiment: Binding affinity to recombinant human LPA1 expressed in CHO cell membranes measured after 2 hrs at 37 degC by scintillation counting method
experimental-readout: pKd
Friendly reminder that pKd comes from taking -log10 of the concentration in mol/L.

Request: Under Lysophosphatidic acid receptor 1 (Homo sapiens, UniProt Q92633): pKd value of [3H]C(C(=O)O)C([3H])c1ccn(C[C@H](CC2Cc3ccccc3C2)[C@H](O)c2cc(OC)c(C)c(OC)c2)c1 (stereo partly specified) ?
Response: 9.47

* * *

Target: Lysophosphatidic acid receptor 1 (Homo sapiens)
Experiment: Binding affinity to recombinant human LPA1 expressed in CHO cell membranes measured after 2 hrs by scintillation counting method
experimental-readout: Kd (nM)
// note: answer is a bare numeric in nM

In [3]: df
Out[3]:
                                   compound  experimental_readout  experimental_result
0  [3H]C(C(=O)O)C([3H])c1ccn(C[C@H](CC2Cc3ccccc3C2)[C@H](O)c2cc(OC)c(C)c(OC)c2)c1 (some centres not stated)                    Kd                 0.74

Would you kindly look at the next entry?
Request: Look up Kd for this compound: [3H]C(CN(Cc1ccc(CC(=O)O)cc1)C(=O)c1cc(OC)c(C)c(OC)c1)C([3H])c1ccccc1 (configuration not stated)
Response: 5.96

* * *

Test: Half life in human microsomes in presence of NADPH
Type: ADME, Microsome
experimental-readout: half-life (h)
// note: answer is a bare numeric in h

Previously resolved entries follow.
                               given_smiles  experimental_result
0  COc1cc([C@@H](O)[C@@H](CCCc2cccs2)Cn2ccc(CCC(=O)O)c2)cc(OC)c1C                 1.25
1  COc1cc([C@@H](O)[C@@H](CCCc2ccccc2)Cn2ccc(CC(=O)O)c2)cc(OC)c1C                0.817
2  COc1cc([C@@H](O)[C@@H](CC2Cc3ccccc3C2)Cn2ccc(CC(=O)O)c2)cc(OC)c1C                 1.08
3  COc1cc([C@@H](O)[C@@H](CCCc2ccsc2)Cn2ccc(CC(=O)O)c2)cc(OC)c1C                    1
4  COc1cc([C@@H](O)[C@@H](CCCc2ccsc2)Cn2ccc(CCC(=O)O)c2)cc(OC)c1C                  1.1

Request: Look up half-life for this compound: COc1cc(C(=O)N(C/C=C/c2ccccc2)Cc2ccc(CC(=O)O)cc2)cc(OC)c1C
Response: 2.72

Request: Look up half-life for this compound: COc1cc([C@@H](O)[C@@H](CCCc2cccs2)Cn2ccc(CC(=O)O)c2)cc(OC)c1C
Response: 1.37

Request: Look up half-life for this compound: COc1cc([C@@H](O)[C@@H](CC2Cc3ccccc3C2)Cn2ccc(CCC(=O)O)c2)cc(OC)c1C
Response: 1.32

* * *

Assay: Total clearance in rat at 1 mg/kg, iv
Type: ADME, organism-based
Conditions: in vivo
Reported clearance values for the following compounds.
// note: answer is a bare numeric in mL/min/kg

Previously resolved entries follow.
                               given_smiles  experimental_readout  experimental_result
0  COc1cc([C@@H](O)[C@@H](CCCc2ccccc2)Cn2ccc(CC(=O)O)c2)cc(OC)c1C             clearance                 50.1
1  COc1cc([C@@H](O)[C@@H](CC2Cc3ccccc3C2)Cn2ccc(CC(=O)O)c2)cc(OC)c1C             clearance                 19.2
2  COc1cc([C@@H](O)[C@@H](CCCc2ccsc2)Cn2ccc(CC(=O)O)c2)cc(OC)c1C             clearance                 16.4

Would you kindly look at the next entry?
Request: Look up clearance for this compound: COc1cc([C@@H](O)[C@@H](CC2Cc3ccccc3C2)Cn2ccc(CCC(=O)O)c2)cc(OC)c1C
Response: 20.5

* * *

Biological target: UniProt Q92633
Test: Binding affinity to recombinant human LPA1 expressed in CHO cell membranes measured after 2 hrs at room temperature by scintillation counting method
experimental-readout: Kd (nM)
// note: answer is a bare numeric in nM

Request: Look up Kd for this molecule: [3H]C(C(=O)O)C([3H])c1ccn(C[C@H](CC2Cc3ccccc3C2)[C@H](O)c2cc(OC)c(C)c(OC)c2)c1 (stereo partly specified)
Response: 0.74

* * *

Target: Lysophosphatidic acid receptor 1 (Homo sapiens)
Test: Antagonist activity at recombinant human LPA1 expressed in CHO cells assessed as reduction in LPA-induced intracellular calcium level pretreated followed by LPA addition by Fura-2-AM dye based fluorescence assay
Format: functional, cell-based
experimental-readout: pIC50
Friendly reminder that pIC50 comes from taking -log10 of the concentration in mol/L.

Previously resolved entries follow.
                               given_smiles  experimental_result
0  COc1cc([C@@H](O)[C@@H](CCCc2ccccc2)Cn2cc(CC(=O)O)cn2)cc(OC)c1C                 7.52
1  COc1cc([C@@H](O)[C@@H](CCCc2ccccc2)Cn2ccc(CCC(=O)O)n2)cc(OC)c1C                 7.40
2  COc1cc([C@@H](O)[C@@H](CC2Cc3ccccc3C2)Cn2ccc(CCC(=O)O)c2)cc(OC)c1C                 7.07

Request: Look up pIC50 for this molecule: COc1cc([C@@H](O)[C@@H](CCCc2ccsc2)Cn2ccc(CC(=O)O)c2)cc(OC)c1C
Response: 7.64

Request: Look up pIC50 for this molecule: COc1cc([C@@H](O)[C@@H](CCCc2ccccc2)Cn2ccc(CC(=O)O)c2)cc(OC)c1C
Response: 7.89
